// data source = patent US5283248A

# experiment description: Toxicity, LD50
# test settings: in vivo, iv
LD50: recorded values
Return type: number; implicit unit mg/kg.

* Cl.O=c1cc2n(C3CC3)c3cc(N4CCNCC4)c(F)cc3n2c(=O)n1O | 30

Let us examine a further case.
## Task May I ask what LD50 has been recorded for `O=C(O)C(F)(F)F.O=c1cc2n(C3CC3)c3cc(N4CCNCC4)c(F)cc3n2c(=O)[nH]1` ?
## Result 30

====

# subject of test: DNA-gyrase (Escherichia coli, UniProt P0AES4+P0AES6)
# Construct: made in house; host or cells: E. coli N4186 and E. coli MK47
# experiment description: DNA-gyrase inhibition, supercoiling method (relaxed pUC18 or pUC19 plasmid DNA as substrate)
# Format: biochemical
# test settings: E. coli DNA-gyrase
Activity MNC (maximum non-effective concentration): recorded values
Return type: number; implicit unit µg/mL.

* CCn1c2cc(N3CCN(C)CC3)c(F)cc2n2c(=O)[nH]c(=O)cc12 | 2
* CCn1c2cc(N3CCNCC3)c(F)cc2n2c(=O)[nH]c(=O)cc12 | 1
* O=C(O)C(F)(F)F.O=c1cc2n(C3CC3)c3cc(N4CCNCC4)c(F)cc3n2c(=O)[nH]1 | 0.45
* CCn1c2cc(N3CCN(C)CC3)c(F)cc2n2c(=O)[nH]c(=S)cc12 | 2

Let us examine a further case.
## Task May I ask what Activity MNC (maximum non-effective concentration) has been recorded for `Cl.O=c1cc2n(C3CC3)c3cc(N4CCNCC4)c(F)cc3n2c(=O)n1O` ?
## Result 2

====

# experiment description: Toxicity, LD50
# test settings: in vivo, po
observed property: LD50

• Cl.O=c1cc2n(C3CC3)c3cc(N4CCNCC4)c(F)cc3n2c(=O)n1O = > 4000 mg/kg

Let us examine a further case.
## Task May I ask what LD50 has been recorded for `O=C(O)C(F)(F)F.O=c1cc2n(C3CC3)c3cc(N4CCNCC4)c(F)cc3n2c(=O)[nH]1` ?
## Result > 2000 mg/kg
